Assay: in vitro
Conditions: rat, gh3-tre-luc cells, AC50 (uM) modified / 1000, Tox21_110001=Tox21_200823; viability, 1 nM T3 present, 24 h
MEASURED ATTRIBUTE: CC50 at 24 h

Form field: reported CC50 at 24 h of Clc1cccc2ccccc12
> 90 µM

---

Assay: in vitro
Conditions: rat, gh3-tre-luc cells, AC50 (uM) modified / 1000, Tox21_110001=Tox21_112428; viability, 1 nM T3 present, 24 h
MEASURED ATTRIBUTE: CC50 at 24 h

Form field: reported CC50 at 24 h of CN1CCCC(=C(c2cccs2)c2cccs2)C1 [Tipepidine]
> 50 µM
